FYI, the data here is from ChEMBL document CHEMBL3297708.

Task for the reader: assign each of the following molecules its reported IC50.
- TGT: Cytochrome P450 2C19 (Homo sapiens)
- Sequence (P33261 whole entry): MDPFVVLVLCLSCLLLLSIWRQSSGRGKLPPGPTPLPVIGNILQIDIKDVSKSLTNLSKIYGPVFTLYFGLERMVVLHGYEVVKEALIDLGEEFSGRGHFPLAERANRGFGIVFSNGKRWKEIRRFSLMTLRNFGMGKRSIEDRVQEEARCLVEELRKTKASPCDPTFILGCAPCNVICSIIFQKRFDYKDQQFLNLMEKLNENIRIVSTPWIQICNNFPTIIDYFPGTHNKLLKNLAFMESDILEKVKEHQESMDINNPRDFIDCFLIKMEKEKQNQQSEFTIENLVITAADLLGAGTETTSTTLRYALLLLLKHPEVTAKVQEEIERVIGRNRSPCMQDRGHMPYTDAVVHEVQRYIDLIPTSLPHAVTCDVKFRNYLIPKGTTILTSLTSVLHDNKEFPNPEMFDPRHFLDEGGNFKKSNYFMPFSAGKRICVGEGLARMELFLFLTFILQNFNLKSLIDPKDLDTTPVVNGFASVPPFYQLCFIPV
- RUN DESCRIPTION: Inhibition of recombinant CYP2C19 (unknown origin) by LC/MS/MS analysis
Please state the figure in nM; there is no need to write the unit.

Incoming: Query IC50 for `CCc1nc2cc(Cl)ccn2c1C(=O)NCc1ccc(N2CCC(c3ccc(OC(F)(F)F)cc3)CC2)cc1`
Outgoing: 290

Incoming: Given `CCc1nc2ccc(Cl)cn2c1C(=O)NCc1ccc(N2CCC(c3ccc(Cl)cc3)CC2)cc1` , respond with its IC50.
Outgoing: 6770

Incoming: Assign IC50 to the following record: `CCc1nc2cc(Cl)ccn2c1C(=O)NCc1ccc(N2CCC(c3ccc(F)cc3)CC2)cc1`
Outgoing: 600

Incoming: Tell me its IC50 given `CCc1nc2ccc(Cl)cn2c1C(=O)NCc1ccc(N2CCN(c3ccc(F)cc3)CC2)cc1` as the entry.
Outgoing: 1320

Incoming: Using the record for `CCc1nc2cc(Cl)ccn2c1C(=O)NCc1ccc(N2CCC(c3ccc(Cl)cc3)CC2)cc1` , state its measured IC50.
Outgoing: 380
